All values here come from ChEMBL document CHEMBL4004820.

# System: MDCK
# assayRemarks: Cytotoxicity against MDCK cells measured after 72 hrs et staining-based microscopic analysis
# Format: cell-based, Canis lupus familiaris
# testContext: dog
endpoint: CC50

As a guide, the following entries are already answered.
CCCC1(N)C2CC3CC(C2)CC1C3 (stereo not given): > 100 µM
CCC1(N)C2CC3CC(C2)CC1C3 (stereo not given): > 100 µM
CN1CCCC12C1CC3CC(C1)CC2C3 (stereo not given): > 100 µM
NC12CC3CC(CC(C3)C1)C2: > 100 µM
NC1C2CC3CC(C2)CC1C3 (stereo not given): 70.5 µM
C1CNC2(C1)C1CC3CC(C1)CC2C3 (stereo not given): > 100 µM

# lookup: CC50 of CC1(N)C2CC3CC(C2)CC1C3 (stereo not given)
25.6 µM

// next record CC12CC3CC(CC(C3)C13CCCN3)C2 (stereo not given)
> 100 µM

// next record `NC1(C23CC4CC(CC(C4)C2)C3)CCCC1`
> 100 µM

// next record `NC1(C23CC4CC(CC(C4)C2)C3)CCCCC1`
> 100 µM
